system: Plasmodium berghei; assay: Luciferase/luciferin-expressing antifolate-resistant parasites were used to infect a culture of HepG2 cells that were pre-incubated with compounds. Infected hepatocytes emit light due to the luciferase reaction. Assay results are presented as the percent inhibition of light emission compared to control. […]; assay type: functional; conditions: sporozoite, read-out: LUCIFERASE INFECTION ASSAY - IC90
experimental.readout: IC90

Below, each entry is followed by its recorded IC90 result.
1) Cc1ccc(Cn2nc(C)c(C(=O)Nc3nc4c(s3)CCCC4)c2Cl)cc1	> 10 µM
2) Cc1ccc(OCc2csc(-c3cnn(C)c3)n2)c2c1C(C)CC2=O (stereo not drawn)	> 10 µM

Would you kindly look at the next entry?
Enter reported IC90 observed with Plasmodium berghei for O=C(Nc1ccc(C(OC(=O)c2ccccc2)(C(F)(F)F)C(F)(F)F)cc1)c1ccccc1
> 10 µM
